# Test system: Rattus norvegicus
# assaySummary: Antiinflammatory activity in albino rat assessed as inhibition of carrageenan-induced paw edema at 0.029 mmol/kg, po after 4 hrs relative to control
# Type: functional
Mark t for reported inhibition in vivo at 29 µmol/kg of 10% or greater; mark f for anything smaller.

See these solved cases before continuing.
[[record]]
compound = "Cc1cc(C)n(-c2nc(-c3ccccc3)nc3c2C2CCCN2C(=O)N3c2ccccc2)n1 (stereo not drawn)"
discretelabel = "t"

[[record]]
compound = "CCN1C(=S)N2CCCC2C2=C1NC(c1ccc(OC)c(O)c1)NC2=O (stereo not drawn)"
discretelabel = "f"

[[record]]
compound = "N#Cc1ccc(/N=c2\\c(C#N)c3n(c(=O)n2-c2ccccc2)CCC3)cc1"
discretelabel = "t"


API: above_or_equal(metric=inhibition in vivo at 29 µmol/kg, cutoff=10%) for item O=C1N(c2ccccc2)c2nc(-c3ccccc3)n3c(=O)[nH]nc3c2C2CCCN12 (stereo not drawn)
t

Decide: inhibition in vivo at 29 µmol/kg of `N#Cc1c2n(c(=O)n(-c3ccccc3)/c1=N\CCO)CCC2` >= 10%?
t

Is inhibition in vivo at 29 µmol/kg for O=C1N(c2ccccc2)c2nc(-c3ccccc3)nc(N3CCCC3)c2C2CCCN12 (stereo not drawn) at or above 10%?
t

Could you verify whether the entry O=C1NC(c2ccccc2)NC2=C1C1CCCN1C(=O)N2c1ccccc1 (stereo not drawn) shows inhibition in vivo at 29 µmol/kg of no less than 10%?
t

Reported inhibition in vivo at 29 µmol/kg at or above 10%? O=C(NNc1nc(-c2ccccc2)nc2c1C1CCCN1C(=O)N2c1ccccc1)c1cccnc1 (stereo not drawn)
f

Kindly determine if inhibition in vivo at 29 µmol/kg recorded for NC1=C(/C(N)=N\O)C2CCCN2C(=O)N1c1ccccc1 (stereo not drawn) is above or exactly 10%.
t
